# Tested on: SK-MEL-28 melanoma
# test-protocol: NCI-60 one-dose screen, 48 h
# condition-details: 10 µM unless noted
About 83,000 compounds went through this panel and 20% of them were active in at least one assay; those are over-represented in the sample as a whole. Active and inactive are the calls of the source. How the source made its calls: active means growth percent below 10; inactive means the rest.
Outcomes: Y for active, N for inactive

{"compound": "O=c1c2c(=NCCN3CCCC3)cc3c(=O)n(CCCN4CCOCC4)c(=O)c4c(-c5ccc(CN6CCCC6)cc5)cc(c(O)n1CCCN1CCOCC1)c2c4-3", "measured-target": "SK-MEL-28 melanoma", "assigned-category": "Y"}
{"compound": "COc1ccccc1/C=C/C(=O)/C=C/c1ccccc1O", "measured-target": "SK-MEL-28 melanoma", "assigned-category": "Y"}
{"compound": "O=C1Nc2ccc(Cl)cc2/C1=N/N=C(c1ccccc1)c1ccccc1", "measured-target": "SK-MEL-28 melanoma", "assigned-category": "N"}
{"compound": "COc1ccc(/C=N/OCC(O)CNCc2ccccc2)cc1OC1CCCC1 (stereo not given)", "measured-target": "SK-MEL-28 melanoma", "assigned-category": "N"}
{"compound": "COc1c(O)c2c3c(c1OC)-c1ccccc1CC3N(S(=O)(=O)c1ccc(C)cc1)CC2 (stereo not given)", "measured-target": "SK-MEL-28 melanoma", "assigned-category": "N"}
